# experiment_notes: NCI Yeast Anticancer Drug Screen. Data for the mec2-1 strain (AID 157)
# condition: S. cerevisiae mec2-1 strain, at 50.0 µM (retest, dose inferred, filed as 5.0), stronger effect = higher value
Compounds without any hit were thinned out: in the full panel of roughly 79,000, 15% have a hit.
Quick reference for growth inhibition among some compounds
Return type: number; implicit unit %.

compound	growth inhibition, %
Cc1cc(C(=C2C=CC(=Nc3ccccc3)C=C2)c2ccc(Nc3ccccc3)cc2)ccc1N	82
CCN(CC)CCNC(Cc1ccccc1)c1ccc(OCc2ccccc2)cc1 (stereo unspecified)	98
CCCC[n+]1c(/C=C\c2c(OC)cc(OC)cc2OC)ccc2ccccc21	99
N#CC(I)CS(=O)(=O)c1ccccc1 (stereo unspecified)	99

q: Supply reported growth inhibition belonging to this compound: Oc1ccc2ccccc2c1N=Nc1nccs1
a: 92

q: Tell me growth inhibition reported for O=[n+]1c2ccccc2n([O-])c2cc(Cl)ccc21
a: 100

q: // Input: CC(=O)Nc1ccc(/C=N/NC(=S)NCC(C)C)cc1 . Output its growth inhibition only.
a: 3

q: For Cc1cc(O)c2c(c1)C(=O)C(c1c(C)cc3c(c1O)C(=O)C1OC1C3=O)=CC2=O (stereo unspecified) , write its growth inhibition.
a: 96

q: Tell me growth inhibition reported for OC(Cc1cc(CC(O)(C(F)(F)F)C(F)(F)F)nc(CC(O)(C(F)(F)F)C(F)(F)F)c1)(C(F)(F)F)C(F)(F)F
a: 100

q: Report growth inhibition, nothing else, for this compound: O=C(CO)NCCO
a: 5

q: Entry C=C1C(=O)OC2CC3(C)CCCC(C)C3=CC12 (stereo unspecified) needs its growth inhibition filled in; supply it.
a: 56
